- assayed target: T1, soluble MSLN (Glu2-6-Gly580, Acro Bio Systems, MSN-H82E9-25 ug) (UniProt Q13421 296-580)
- T1 construct: range 296-580; Detected with an anti-His secondary antibody in the CAR-T staining, so it carries a His tag; also called soluble mesothelin
- T1 sequence (Q13421 other isoform, or with tags, fused parts or gaps limits assumed): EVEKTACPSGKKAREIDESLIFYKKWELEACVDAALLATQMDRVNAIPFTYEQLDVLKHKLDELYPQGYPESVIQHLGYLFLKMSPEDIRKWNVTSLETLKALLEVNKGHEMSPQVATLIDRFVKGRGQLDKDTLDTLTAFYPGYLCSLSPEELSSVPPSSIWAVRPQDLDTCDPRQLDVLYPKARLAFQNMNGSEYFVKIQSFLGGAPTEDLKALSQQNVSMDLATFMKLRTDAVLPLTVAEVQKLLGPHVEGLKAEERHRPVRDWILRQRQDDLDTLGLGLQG
- measurement protocol: biolayer interferometry (BLI) with soluble MSLN
- Procedure: Experiments were undertaken to characterize the ability of the anti-MSLN VHH antibodies to bind MSLN. 6×His tagged (SEQ ID NO: 93) VHH antibodies were produced by Genscript in a mammalian cell line and purified. The purified VHH antibodies were tested using a flow cytometry-based assay to see how well they bound mesothelin expressed on cells (FIG. 9A). […] Also, biolayer interferometry (BLI) was used to accurately assess the binding affinity (Kd) of the anti-MSLN VHH antibodies (Table 5). […]
test readout: pKd
Give bare numbers, as −log10 of the molar value.

# annotated cases, reported pKd shown
Q) Return pKd (reported value) for this binder: Ab_119704 VHH antibody, 6×His tagged, purified (VHH, Produced by Genscript in a mammalian cell line and purified) VHH: QLQLVESGGGLVQPGGSLRLSCAASGFTLDNYAIGWFRQAPGKEREGVSSISSSGGSTNYADSVKGRFTVSRDNAKHTVYLQMNSLKPEDTAVYYCAGVGDYGRRAMGQGTSVTVSH
A) 8.35

Q) Return pKd (reported value) for this binder: Ab_113415 VHH antibody, 6×His tagged, purified (VHH, Produced by Genscript in a mammalian cell line and purified; The tag is written after the VHH only by convention) VHH: QVQLVESGGGLVQPGGSLRLSCAASGSMFSINAVAWYRQAPGEQREPVAAMTSGGSTIYADSVKGRFTISRDNAKNTVYLQMSSLKPEDTAVYYCNGGWSLAMDYWGQGTSVTVSH
A) 8.43

Q) Return pKd (reported value) for this binder: Ab_119706 VHH antibody, 6×His tagged, purified (VHH, Produced by Genscript in a mammalian cell line and purified) VHH: QLQLVESGGGLVQPGGSLRLSCAASGFTLDYYAIGWFRQAPGKEREGVSYISSSGGSTNYADSVKGRFTISRDNAKNTVYLQMNSLKPEDTGVYSCAAAGGYGNSSRYWGQGTSVTVSH
A) 7.94

Q) Return pKd (reported value) for this binder: Ab_119707 VHH antibody, 6×His tagged, purified (VHH, Produced by Genscript in a mammalian cell line and purified) VHH: EVQLVESGGGSVQAGETLRLSCTASGFTFDDSDMGWYRQAPGDECELVSTISSDGSTNYADSVKGRFTISQDNAKNTVYLQMTSLKPEDTAIYSCRTMASRIGCWGQGTLVTVSH
A) 8.23

In the following, a different binder is considered.
Q) Return pKd (reported value) for this binder: Ab_119702 VHH antibody, 6×His tagged, purified (VHH, Produced by Genscript in a mammalian cell line and purified) VHH: DVQLVESGGGLVQAGGSLRLSCAASGFPYFSCCMSWHRQAPGKDRELVSSISSDGSTHYADSVRGRFTISKGNARNTLYLQMNSLKPEDTAVYFCAASPRQLGPYYAMDYWGQGTSVTVSH
A) 8.27

The values you see were collected from patent US20260125465A1.
